Molecular target: PDE4B (Homo sapiens, UniProt Q07343)
Construct: purchased Enzo Life Sciences BML-SE522-0020
Sequence (Q07343 whole entry): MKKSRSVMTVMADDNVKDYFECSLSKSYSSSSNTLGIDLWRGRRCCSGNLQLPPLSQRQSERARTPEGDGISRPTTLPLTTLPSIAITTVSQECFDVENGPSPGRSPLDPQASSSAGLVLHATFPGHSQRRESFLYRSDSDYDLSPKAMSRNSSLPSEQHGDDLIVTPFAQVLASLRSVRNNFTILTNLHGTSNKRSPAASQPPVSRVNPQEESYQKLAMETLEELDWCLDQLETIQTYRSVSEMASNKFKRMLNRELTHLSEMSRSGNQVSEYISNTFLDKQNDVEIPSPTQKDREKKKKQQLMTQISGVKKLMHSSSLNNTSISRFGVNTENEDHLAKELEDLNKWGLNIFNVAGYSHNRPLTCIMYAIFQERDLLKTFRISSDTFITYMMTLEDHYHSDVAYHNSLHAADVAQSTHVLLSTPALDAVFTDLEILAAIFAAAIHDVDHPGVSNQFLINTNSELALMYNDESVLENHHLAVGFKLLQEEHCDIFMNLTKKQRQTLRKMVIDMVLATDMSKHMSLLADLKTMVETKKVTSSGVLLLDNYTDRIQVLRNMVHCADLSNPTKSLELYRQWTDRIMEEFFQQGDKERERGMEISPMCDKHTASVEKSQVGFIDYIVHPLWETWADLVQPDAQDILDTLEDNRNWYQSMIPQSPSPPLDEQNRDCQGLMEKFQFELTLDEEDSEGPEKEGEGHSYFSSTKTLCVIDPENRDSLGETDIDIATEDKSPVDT
Assay: PDE4B enzyme activity assay (PDE-Glo Phosphodiesterase Assay Kit)
Type: biochemical
Conditions: selectivity ratio
observation.type: IC50 (PDE4D)/IC50 (PDE4B)

Observe how each entry below is paired with its result.
Look up and report measured IC50 (PDE4D)/IC50 (PDE4B) for this entry: COc1ccc([C@@H]2CN(C(=O)[C@@H](O)CO)C[C@@]2(C)[C@@H](C)O)cc1OC1CN(c2ccc(C3CC3)cn2)C1 [Compound 034]
11.8

Look up and report measured IC50 (PDE4D)/IC50 (PDE4B) for this entry: COc1ccc([C@@H]2CN(C(=O)[C@@H](O)CO)C[C@@]2(C)[C@@H](C)O)cc1OC1CN(c2ccc(CC(F)(F)F)cn2)C1 [Compound 033]
12.8

Look up and report measured IC50 (PDE4D)/IC50 (PDE4B) for this entry: COc1ccc([C@@H]2CN(C(=O)[C@@H](O)CO)C[C@@]2(C)[C@@H](C)O)cc1OC1CN(c2ccc(C)c(C#N)n2)C1 [Compound 003]
0.95

I. COc1ccc(N2CC(Oc3cc([C@@H]4CN(C(=O)[C@@H](O)CO)C[C@@]4(C)[C@@H](C)O)ccc3OC)C2)nc1 [Compound 015]
II. COc1ccc([C@@H]2CN(C(=O)[C@@H](O)CO)C[C@@]2(C)[C@@H](C)O)cc1OC1CN(c2cc(C)c(C#N)cn2)C1 [Compound 012]
Between I and II , which one shows the larger IC50 (PDE4D)/IC50 (PDE4B) value? # reply format: chosen label
I

====

Assay: Pharmacokinetic test in canine
Type: in vivo, beagle dogs
Conditions: male, beagle, dog, plasma, oral gavage 5 mg/kg
observation.type: Cmax (µg/mL)

Look up and report measured Cmax for this entry: COc1ccc([C@@H]2CN(C(=O)[C@@H](O)CO)C[C@@]2(C)[C@@H](C)O)cc1OC1CN(c2cc(C)c(Cl)cn2)C1 [Compound 010]
0.413

A. COc1ccc([C@@H]2CN(C(=O)[C@@H](O)CO)C[C@@]2(C)[C@@H](C)O)cc1OC1CN(c2ccc(Cl)c(C)n2)C1 [Compound 011]
B. COc1ccc([C@@H]2CN(C(=O)[C@@H](O)CO)C[C@@]2(C)[C@@H](C)O)cc1OC1CN(c2cc(Cl)c(C)cn2)C1 [Compound 002]
Field: lower recorded Cmax (choose A or B ) # reply format: chosen label
B
(B: 0.198 µg/mL, A: 0.356 µg/mL)

====

Target: PDE4B (Homo sapiens)
Construct: purchased Enzo Life Sciences BML-SE522-0020
Assay: PDE4B enzyme activity assay (PDE-Glo Phosphodiesterase Assay Kit)
Assay type: biochemical
Settings: selectivity ratio
observation.type: IC50 (PDE4D)/IC50 (PDE4B)

Observe how each entry below is paired with its result.
Look up and report measured IC50 (PDE4D)/IC50 (PDE4B) for this entry: CCc1ccc(N2CC(Oc3cc([C@@H]4CN(C(=O)[C@@H](O)CO)C[C@@]4(C)[C@@H](C)O)ccc3OC)C2)nc1
1.37

Look up and report measured IC50 (PDE4D)/IC50 (PDE4B) for this entry: COc1ccc([C@@H]2CN(C(=O)[C@@H](O)CO)C[C@@]2(C)[C@@H](C)O)cc1OC1CN(c2cc(C)c(C)cn2)C1
2.45

Look up and report measured IC50 (PDE4D)/IC50 (PDE4B) for this entry: CCc1nc(N2CC(Oc3cc([C@@H]4CN(C(=O)[C@@H](O)CO)C[C@@]4(C)[C@@H](C)O)ccc3OC)C2)ccc1C
1.73

Look up and report measured IC50 (PDE4D)/IC50 (PDE4B) for this entry: COc1ccc([C@@H]2CN(C(=O)[C@@H](O)CO)C[C@@]2(C)[C@@H](C)O)cc1OC1CN(c2cc(C#N)c(C)cn2)C1
0.74

Look up and report measured IC50 (PDE4D)/IC50 (PDE4B) for this entry: COc1ccc([C@@H]2CN(C(=O)[C@@H](O)CO)C[C@@]2(C)[C@@H](C)O)cc1OC1CN(c2ccc(C)cn2)C1 [Positive control compound, reference compound]
0.20

Look up and report measured IC50 (PDE4D)/IC50 (PDE4B) for this entry: COc1ccc([C@@H]2CN(C(=O)[C@@H](O)CO)C[C@@]2(C)[C@@H](C)O)cc1OC1CN(c2ncc(C)cc2C#N)C1
0.98

Look up and report measured IC50 (PDE4D)/IC50 (PDE4B) for this entry: COc1ccc([C@@H]2CN(C(=O)[C@@H](O)CO)C[C@@]2(C)[C@@H](C)O)cc1OC1CN(c2cc(C)c(Cl)cn2)C1
0.50

Look up and report measured IC50 (PDE4D)/IC50 (PDE4B) for this entry: COc1ccc([C@@H]2CN(C(=O)[C@@H](O)CO)C[C@@]2(C)[C@@H](C)O)cc1OC1CN(c2ncc(C)cc2F)C1
1.20

I. COc1ccc([C@@H]2CN(C(=O)[C@@H](O)CO)C[C@@]2(C)[C@@H](C)O)cc1OC1CN(c2ccc(OC(C)C)cn2)C1
II. COc1ccc([C@@H]2CN(C(=O)[C@@H](O)CO)C[C@@]2(C)[C@@H](C)O)cc1OC1CN(c2ccc(Cl)c(C)n2)C1
III. COc1ccc([C@@H]2CN(C(=O)[C@@H](O)CO)C[C@@]2(C)[C@@H](C)O)cc1OC1CN(c2ncc(C)cc2C)C1
IV. COc1ccc([C@@H]2CN(C(=O)[C@@H](O)CO)C[C@@]2(C)[C@@H](C)O)cc1OC1CN(c2ccc(C(C)C)cn2)C1
V. COc1ccc([C@@H]2CN(C(=O)[C@@H](O)CO)C[C@@]2(C)[C@@H](C)O)cc1OC1CN(c2ncc(F)cc2Cl)C1
Sort ascending by IC50 (PDE4D)/IC50 (PDE4B). Enter labels, ranked according to the request.
II, V, I, III, IV
(II: 0.46, V: 0.91, I: 1.39, III: 3.59, IV: 9.85)
